Biological target: Human Polθ polymerase domain (aa1820-2590) (Homo sapiens)
Construct: Human Polθ polymerase domain (aa1820-2590) was expressed in E. coli; made in house; host or cells: E. coli
Test: Polθ Polymerase Domain Kinact/KI Assay (PicoGreen)
Format: biochemical
Settings: 0.8 nM Polθ, 100 nM DNA substrate, kobs vs [I] fit for 2-step covalent inhibitor
Procedure: Polθ Polymerase Domain Kinact/KI Assay A PicoGreen assay was used to measure the Kinact and KI values of covalent compounds that inhibit the activity of Polθ in vitro. Human Polθ polymerase domain (aa1820-2590) was expressed in E. coli, purified, aliquoted and stored at −80° C. until required. Polθ substrate was generated from a 1.2:1 mix of DNA II Short to DNA II Long to give a final concentration of […] substrate in annealing buffer (20 mM Tris pH 7.5, 50 mM NaCl). […]
endpoint_label: Kinact/Kl (M⁻¹ s⁻¹)
Supply the numeric figure in M⁻¹ s⁻¹, leaving out any unit text.

Prompt: Requested field: Kinact/Kl. Item: C=CC(=O)N1CC2(C1)[C@H](C)N(CCN1C[C@H]3CC(=O)N(c4cc(C(F)(F)F)cc(C)n4)[C@@H]3C(=O)N(C)c3cccc(F)c31)C[C@H]1COCCN12 (single isomer, unassigned)
Response: 2e+06

Prompt: # lookup: Kinact/Kl of C=CC(=O)N1CCN2C[C@@H](CN3C[C@H]4CC(=O)N(c5cc(C(F)(F)F)cc(C)n5)[C@@H]4C(=O)N(C)c4cccc(F)c43)N(C)C[C@H]2C1 (single isomer, unassigned) [Example 140a]
Response: 22000

Prompt: Look up Kinact/Kl: C=CC(=O)N1CCOc2cc(CN3C[C@H]4CC(=O)N(c5cc(C(F)(F)F)cc(C)n5)[C@@H]4C(=O)N(C)c4cccc(Cl)c43)ccc21
Response: 1.05e+06

---

Below, each entry is listed with its recorded Kinact/Kl.
Molecular target: Human Polθ polymerase domain (aa1820-2590) (Homo sapiens, UniProt O75417)
Construct: Human Polθ polymerase domain (aa1820-2590) was expressed in E. coli; made in house; host or cells: E. coli
Sequence (O75417 1820-2590): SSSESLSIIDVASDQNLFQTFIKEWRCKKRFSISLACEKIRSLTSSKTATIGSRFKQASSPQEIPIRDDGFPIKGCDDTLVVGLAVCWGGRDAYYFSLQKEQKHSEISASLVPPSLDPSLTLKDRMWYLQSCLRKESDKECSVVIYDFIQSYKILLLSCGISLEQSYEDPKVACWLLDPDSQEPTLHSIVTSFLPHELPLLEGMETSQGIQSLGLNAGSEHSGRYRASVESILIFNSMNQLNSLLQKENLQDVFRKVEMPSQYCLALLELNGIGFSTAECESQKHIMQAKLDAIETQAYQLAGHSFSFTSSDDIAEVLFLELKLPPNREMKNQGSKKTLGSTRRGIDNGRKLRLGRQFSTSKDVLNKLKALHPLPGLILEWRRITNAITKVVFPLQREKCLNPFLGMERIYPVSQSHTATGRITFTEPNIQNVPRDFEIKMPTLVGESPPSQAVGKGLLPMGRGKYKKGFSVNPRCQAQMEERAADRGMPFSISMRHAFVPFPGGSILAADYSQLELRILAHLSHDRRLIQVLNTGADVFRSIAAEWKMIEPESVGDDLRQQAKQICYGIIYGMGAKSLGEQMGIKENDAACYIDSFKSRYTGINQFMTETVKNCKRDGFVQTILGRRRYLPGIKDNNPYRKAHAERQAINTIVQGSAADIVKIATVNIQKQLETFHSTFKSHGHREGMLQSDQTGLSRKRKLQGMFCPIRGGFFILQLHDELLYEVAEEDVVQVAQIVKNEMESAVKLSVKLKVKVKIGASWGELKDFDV
Test: Polθ Polymerase Domain Kinact/KI Assay (PicoGreen)
Assay type: biochemical
Details: 0.8 nM Polθ, 100 nM DNA substrate, kobs vs [I] fit for 2-step covalent inhibitor
Give just the numeric value; M⁻¹ s⁻¹ need not be written.

The examples below pair each entry with its known result.
compound	unit_of_measurement	experimental_value
C=CC(=O)N1CCOC[C@@H]1c1ccc(CN2C[C@H]3CC(=O)N(c4cc(C(F)(F)F)cc(C)n4)[C@@H]3C(=O)N(C)c3cccc(C)c32)cn1 (racemic) [Example 324b]	M⁻¹ s⁻¹	470000
Cc1cc(C(F)(F)F)cc(N2C(=O)C[C@@H]3CN(C[C@H]4C[C@H](NC(=O)/C=C/CN(C)C)C4)c4c(C)cccc4N(C)C(=O)[C@H]32)n1 [Example 331]	M⁻¹ s⁻¹	1.85e+06
C=C(CN(C)C)C(=O)N1CC(F)(COCCN2C[C@H]3CC(=O)N(c4cc(C(F)(F)F)cc(C)n4)[C@@H]3C(=O)N(C)c3cccc(Cl)c32)C1 [Example 305]	M⁻¹ s⁻¹	1.82e+06
C=C(CN1CCN(C)CC1)C(=O)N1CC(COCCN2C[C@H]3CC(=O)N(c4cc(C(F)(F)F)cc(C)n4)[C@@H]3C(=O)N(C)c3cccc(C)c32)C1 [Example 193]	M⁻¹ s⁻¹	2.58e+06
C=CC(=O)NCC12CC(CN3C[C@H]4CC(=O)N(c5cc(C(F)(F)F)cc(C)n5)[C@@H]4C(=O)N(C)c4cccc(C)c43)(C1)C2 [Example 175]	M⁻¹ s⁻¹	370000
C=CC(=O)N1CC(n2cnc(CN3C[C@H]4CC(=O)N(c5cc(C(F)(F)F)cc(C)n5)[C@@H]4C(=O)N(C)c4cccc(F)c43)n2)C1 [Example 123]	M⁻¹ s⁻¹	270000
Cc1cc(C(F)(F)F)cc(N2C(=O)C[C@@H]3CN(CCCOC4CN(C(=O)/C=C/CN(C)C)C4)c4c(F)cccc4N(C)C(=O)[C@H]32)n1 [Example 43]	M⁻¹ s⁻¹	1.9e+06
C#CC(=O)N1CCn2nc(CN3C[C@H]4CC(=O)N(c5cc(C(F)(F)F)cc(C)n5)[C@@H]4C(=O)N(C)c4cccc(C)c43)cc2C1 [Example 198]	M⁻¹ s⁻¹	700000
C=CC(=O)N1CCN2CCN(C(=O)CN3C[C@H]4CC(=O)N(c5cc(C(F)(F)F)cc(C)n5)[C@@H]4C(=O)N(C)c4cccc(F)c43)CC2C1 (mixture of isomers) [Example 76b]	M⁻¹ s⁻¹	940000
C=CC(=O)N1CC(C)(N2CCN(CCN3C[C@H]4CC(=O)N(c5cc(C(F)(F)F)cc(C)n5)[C@@H]4C(=O)N(C)c4cccc(C)c43)CC2)C1 [Example 72]	M⁻¹ s⁻¹	2.36e+06

Now examine the next entry.
Prompt: State the recorded Kinact/Kl for this entry: C=C(CN(CC)CC)C(=O)N1CC(OCCCN2C[C@H]3CC(=O)N(c4cc(C(F)(F)F)cc(C)n4)[C@@H]3C(=O)N(C)c3cccc(Cl)c32)C1 [Example 166]
Response: 3.41e+06
